The measurements presented in this section are drawn from patent US20240309103A1.

- Target Or System: T1, hNPR1-mFc:hBNP complex (human, UniProt P16860 103-134)
- T1 construct: also called human NPR1 complexed to BNP
- Method Notes: SPR, mAb captured, 25C
Measured t½ values are reported for all entries that follow.
Recorded Metric: t½

[[record]]
binder = "mAb22809 (antibody, human IgG4, V domains shown) VH: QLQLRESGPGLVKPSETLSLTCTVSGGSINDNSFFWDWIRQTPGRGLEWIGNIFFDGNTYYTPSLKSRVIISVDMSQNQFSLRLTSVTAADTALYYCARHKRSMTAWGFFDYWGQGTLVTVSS VL: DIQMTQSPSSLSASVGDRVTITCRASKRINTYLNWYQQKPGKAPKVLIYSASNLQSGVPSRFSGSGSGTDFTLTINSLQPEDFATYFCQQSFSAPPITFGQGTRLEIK"
observed_value = "0.873 h"

[[record]]
binder = "mAb22805 (antibody, human IgG4, V domains shown) VH: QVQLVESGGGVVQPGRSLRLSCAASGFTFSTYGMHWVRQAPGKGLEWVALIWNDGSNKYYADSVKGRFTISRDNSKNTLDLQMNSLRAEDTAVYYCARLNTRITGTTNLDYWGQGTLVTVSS VL: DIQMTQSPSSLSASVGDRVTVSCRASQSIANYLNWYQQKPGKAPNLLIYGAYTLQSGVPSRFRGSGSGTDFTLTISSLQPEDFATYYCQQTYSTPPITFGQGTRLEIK"
observed_value = "1.26 h"

[[record]]
binder = "mAb25497 (antibody, human IgG4, V domains shown) VH: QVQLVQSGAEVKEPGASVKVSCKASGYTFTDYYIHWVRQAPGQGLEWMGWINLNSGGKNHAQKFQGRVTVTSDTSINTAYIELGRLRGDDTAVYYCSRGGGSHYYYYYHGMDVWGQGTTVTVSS VL: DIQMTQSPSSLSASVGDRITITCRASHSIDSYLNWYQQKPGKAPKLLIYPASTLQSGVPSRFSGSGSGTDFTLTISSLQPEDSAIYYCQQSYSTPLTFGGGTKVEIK"
observed_value = "3.51 h"

[[record]]
binder = "mAb25508 (antibody, human IgG4, V domains shown) VH: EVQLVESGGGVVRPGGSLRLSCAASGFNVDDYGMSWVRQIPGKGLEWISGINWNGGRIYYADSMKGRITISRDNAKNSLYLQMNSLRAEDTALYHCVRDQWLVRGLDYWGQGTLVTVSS VL: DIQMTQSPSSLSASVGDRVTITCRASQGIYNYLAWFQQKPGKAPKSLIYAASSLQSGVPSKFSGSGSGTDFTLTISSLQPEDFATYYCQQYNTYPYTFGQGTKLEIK"
observed_value = "2.24 h"

